target: human androgen receptor (hAR) (Homo sapiens, UniProt P10275); construct: made in house; host or cells: baculovirus/Sf9 insect cells (crude extract); experiment: Competitive binding analysis on baculovirus/Sf9 generated hAR extracts with 3H-DHT tracer; conditions: hAR extract, 1 nM 3H-DHT, one hour at 4° C; mean of multiple tests; read-out: AR Binding IC50
Sequence (P10275 whole entry): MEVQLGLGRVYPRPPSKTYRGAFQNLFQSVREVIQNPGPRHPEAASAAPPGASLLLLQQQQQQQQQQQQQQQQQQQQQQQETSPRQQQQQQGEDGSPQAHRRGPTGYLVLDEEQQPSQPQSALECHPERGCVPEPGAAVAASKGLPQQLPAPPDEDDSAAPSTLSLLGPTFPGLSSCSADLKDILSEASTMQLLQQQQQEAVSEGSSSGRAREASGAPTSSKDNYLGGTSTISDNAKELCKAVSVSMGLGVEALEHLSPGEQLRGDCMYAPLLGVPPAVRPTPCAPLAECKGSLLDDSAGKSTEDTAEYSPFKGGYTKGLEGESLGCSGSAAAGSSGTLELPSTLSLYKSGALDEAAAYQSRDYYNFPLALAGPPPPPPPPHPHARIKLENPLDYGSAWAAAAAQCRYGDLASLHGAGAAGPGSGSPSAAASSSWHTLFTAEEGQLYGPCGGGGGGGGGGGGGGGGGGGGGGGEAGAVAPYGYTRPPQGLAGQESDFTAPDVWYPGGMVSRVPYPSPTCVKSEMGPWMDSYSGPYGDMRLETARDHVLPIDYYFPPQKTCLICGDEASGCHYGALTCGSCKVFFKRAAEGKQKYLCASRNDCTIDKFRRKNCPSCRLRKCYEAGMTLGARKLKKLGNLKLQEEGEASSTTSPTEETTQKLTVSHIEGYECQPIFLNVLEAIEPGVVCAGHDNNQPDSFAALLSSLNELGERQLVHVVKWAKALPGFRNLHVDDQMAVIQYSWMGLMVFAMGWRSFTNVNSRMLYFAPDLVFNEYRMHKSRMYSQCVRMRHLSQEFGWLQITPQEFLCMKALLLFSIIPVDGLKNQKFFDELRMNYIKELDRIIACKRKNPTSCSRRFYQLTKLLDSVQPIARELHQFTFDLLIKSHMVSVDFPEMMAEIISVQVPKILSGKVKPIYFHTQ
TEST_READOUT: log10 of IC50 (log10 of the value in nM)
Each number you see is log10 of IC50, and the unit inside the log is nM.

Okay, here is my list. What is log10 of IC50 for each of these?
1. CC(C)C[C@@H](Oc1ccc(C#N)c(C(F)(F)F)c1)C(=O)NCCc1ccc(O)cc1
2. COc1ccc2[nH]cc(CCNC(=O)C(CC(C)C)Oc3ccc(C#N)c(C(F)(F)F)c3)c2c1 (centres unmarked)
3. CCC[C@H](Oc1ccc(C#N)c(C(F)(F)F)c1)C(=O)NCCc1c[nH]c2ccccc12

1. 2.17
2. 2.45
3. 1.32
